- System: U251 CNS
- procedure details: NCI-60 one-dose screen, 48 h (100 = growth as untreated, 0 = no growth, -100 = all killed)
- run parameters: 10 µM unless noted
The panel holds about 83,000 compounds, 20% with a hit somewhere; the sample as a whole holds those more often.
measured metric: growth (%)
Numeric answer only, unit % assumed.

| molecule | measured metric | numeric value |
| --- | --- | --- |
| NS(=O)(=O)c1ccc(CCNC(=O)CSc2ccc(-c3ccc(Br)cc3)nn2)cc1 | growth | 76 |
| C=Cn1cc(C(=O)O)c(=O)c2cc(F)c(N3CCN(c4nccc(-c5nccs5)n4)CC3)cc21 | growth | 5.03 |
| CCOC(=O)COc1c(OC)c(OC)cc2oc(-c3cccc(C(=O)Nc4ccc(Cl)cc4)c3)cc(=O)c12 | growth | 39.9 |

What measured growth is associated with `Cc1cc(=O)oc2cc(OCCOc3ccc(/C=C/C(=O)Nc4ccccc4N)cc3)ccc12` on U251 CNS? 30.7

What measured growth is associated with C=C1CC[C@@H]2[C@]3(C)COC(c4cn[nH]c4-c4cccc(Cl)c4)O[C@@H]3CC[C@@]2(C)[C@@H]1C/C=C1/C(=O)OCC1O (stereo not given in full) on U251 CNS? -85.8

What measured growth is associated with `O=C(c1ccccc1)c1ccc2nc(-c3ccc(F)cc3)[nH]c2c1` on U251 CNS? -26.5

What measured growth is associated with `C/C(=N\Nc1ccc(S(N)(=O)=O)cc1)c1ccc(N=Nc2c(Nc3ccccc3)[nH][nH]c2=O)cc1` on U251 CNS? -46.7

What measured growth is associated with COc1cc(C2CC(c3cc(OC)c(OC)c(OC)c3)=NN2C(C)=O)ccc1OCc1ccccc1 (stereo not given) on U251 CNS? 44.3

What measured growth is associated with `CC(C)c1sc(NC(=O)c2cc(NC(=O)c3cc(NC(=O)c4nccn4C)cn3C)cn2C)nc1C(=O)NCCCN(C)C` on U251 CNS? 30.2

What measured growth is associated with `COc1ccc2c(c1)c(/C=N/Nc1ccc3ccccc3n1)cn2C` on U251 CNS? 7.9

What measured growth is associated with C=C1CCC2C3(C)COC(c4ccccc4)OC3CCC2(C)C1CC(Sc1ccccc1)C1=CCOC1=O (stereo not given) on U251 CNS? 17.5

What measured growth is associated with `Cc1cc(=O)oc2cc(OCCCCOc3ccc(/C=C/C(=O)Nc4ccccc4N)cc3)ccc12` on U251 CNS? 60.2

What measured growth is associated with `CNC(=O)c1cc(Oc2ccc3nc(NC(=O)Nc4cccc(OC(F)(F)F)c4)sc3c2)ccn1` on U251 CNS? 2.42

What measured growth is associated with O=c1oc2ccccc2cc1-c1csc(N2N=C(c3ccccc3)CC2c2ccc(N3CCOCC3)cc2)n1 (stereo not given) on U251 CNS? 109

What measured growth is associated with `COc1ccc(-c2nc(SC(C)C)nc(NCCc3c[nH]c4ccccc34)c2C#N)cc1` on U251 CNS? 27.1

What measured growth is associated with `O=C(COc1ccc(NC(=O)Nc2ccc(Cl)c(Cl)c2)cc1)N=Nc1c(O)[nH]c2ccc(Cl)cc12` on U251 CNS? -84.5

What measured growth is associated with `COc1cc2oc(-c3cccc(C(=O)Nc4ccc(Cl)cc4)c3)cc(=O)c2c(OCCNC(=O)[C@@H](N)CCC(=O)O)c1OC` on U251 CNS? 87.4

What measured growth is associated with `O=C1CCCc2cc(OCC(=O)N3CCCCC3)ccc2N1` on U251 CNS? 107

What measured growth is associated with `CC(=O)NNc1ccc2nnc(-c3ccccc3)n2n1` on U251 CNS? 101

What measured growth is associated with `Cn1cc(-c2cc3nc(-c4c[nH]c5ccc(Cl)cc45)cc(N)n3n2)c2ccccc21` on U251 CNS? -83
